Recorded remaining activity at 10 µM by entry
# Assay system: hMAO-A (Homo sapiens)
# Sequence (P21397 whole entry): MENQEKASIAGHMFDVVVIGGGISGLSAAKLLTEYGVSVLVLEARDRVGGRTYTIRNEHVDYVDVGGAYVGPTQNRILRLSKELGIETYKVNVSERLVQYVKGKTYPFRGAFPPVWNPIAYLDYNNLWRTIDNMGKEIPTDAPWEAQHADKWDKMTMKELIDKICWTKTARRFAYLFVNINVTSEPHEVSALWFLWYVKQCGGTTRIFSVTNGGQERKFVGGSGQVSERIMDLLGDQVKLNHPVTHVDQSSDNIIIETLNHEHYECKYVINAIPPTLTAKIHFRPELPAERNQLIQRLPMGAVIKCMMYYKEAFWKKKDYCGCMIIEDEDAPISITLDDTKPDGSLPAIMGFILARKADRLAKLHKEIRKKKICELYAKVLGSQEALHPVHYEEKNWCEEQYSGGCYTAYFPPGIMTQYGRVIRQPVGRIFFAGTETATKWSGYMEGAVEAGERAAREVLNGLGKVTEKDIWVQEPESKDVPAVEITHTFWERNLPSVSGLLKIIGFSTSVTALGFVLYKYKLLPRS
# Protocol description: Inhibition of recombinant hMAO-A, kynuramine substrate, continuous absorbance method
# Experimental context: read-out: Residual Activity at 10 µM (%) MAO-A
Parameter measured: remaining activity at 10 µM

{"Compound": "O=C(Cn1nc(N2CCC(Cc3ccccc3)CC2)ccc1=O)NN=Cc1ccccc1 [Compound S1]", "Parameter measured": "remaining activity at 10 µM", "Reported measurement": "63.4%"}
{"Compound": "CN(C)c1ccc(C=NNC(=O)Cn2nc(N3CCC(Cc4ccccc4)CC3)ccc2=O)cc1 [Compound S13]", "Parameter measured": "remaining activity at 10 µM", "Reported measurement": "36.1%"}
{"Compound": "COc1cccc(C=NNC(=O)Cn2nc(N3CCC(Cc4ccccc4)CC3)ccc2=O)c1 [Compound S11]", "Parameter measured": "remaining activity at 10 µM", "Reported measurement": "16.6%"}
{"Compound": "O=C(Cn1nc(N2CCC(Cc3ccccc3)CC2)ccc1=O)NN=Cc1ccc(Br)cc1 [Compound S2]", "Parameter measured": "remaining activity at 10 µM", "Reported measurement": "54.8%"}
{"Compound": "C[C@H](NCc1ccc(OCc2cccc(F)c2)cc1)C(N)=O [Safinamide, reference compound]", "Parameter measured": "remaining activity at 10 µM", "Reported measurement": "69%"}
{"Compound": "O=C(Cn1nc(N2CCC(Cc3ccccc3)CC2)ccc1=O)NN=Cc1cccc(Cl)c1 [Compound S5]", "Parameter measured": "remaining activity at 10 µM", "Reported measurement": "25.6%"}
{"Compound": "O=C(Cn1nc(N2CCC(Cc3ccccc3)CC2)ccc1=O)NN=Cc1ccccc1Br [Compound S3]", "Parameter measured": "remaining activity at 10 µM", "Reported measurement": "34.4%"}
{"Compound": "O=C(Cn1nc(N2CCC(Cc3ccccc3)CC2)ccc1=O)NN=Cc1cccc(Br)c1 [Compound S4]", "Parameter measured": "remaining activity at 10 µM", "Reported measurement": "56.9%"}
{"Compound": "O=C(Cn1nc(N2CCC(Cc3ccccc3)CC2)ccc1=O)NN=Cc1ccc(F)cc1 [Compound S8]", "Parameter measured": "remaining activity at 10 µM", "Reported measurement": "22.4%"}
{"Compound": "COc1ccc(C=NNC(=O)Cn2nc(N3CCC(Cc4ccccc4)CC3)ccc2=O)cc1 [Compound S12]", "Parameter measured": "remaining activity at 10 µM", "Reported measurement": "7.71%"}
{"Compound": "O=C(Cn1nc(N2CCC(Cc3ccccc3)CC2)ccc1=O)NN=Cc1cccc(F)c1 [Compound S7]", "Parameter measured": "remaining activity at 10 µM", "Reported measurement": "12.8%"}
{"Compound": "N#Cc1ccccc1C=NNC(=O)Cn1nc(N2CCC(Cc3ccccc3)CC2)ccc1=O [Compound S16]", "Parameter measured": "remaining activity at 10 µM", "Reported measurement": "33.2%"}
{"Compound": "Cc1cccc(C=NNC(=O)Cn2nc(N3CCC(Cc4ccccc4)CC3)ccc2=O)c1 [Compound S10]", "Parameter measured": "remaining activity at 10 µM", "Reported measurement": "16.1%"}
{"Compound": "O=C(Cn1nc(N2CCC(Cc3ccccc3)CC2)ccc1=O)NN=Cc1ccc(Cl)cc1 [Compound S6]", "Parameter measured": "remaining activity at 10 µM", "Reported measurement": "42.2%"}
{"Compound": "Cc1ccccc1C=NNC(=O)Cn1nc(N2CCC(Cc3ccccc3)CC2)ccc1=O [Compound S9]", "Parameter measured": "remaining activity at 10 µM", "Reported measurement": "23.2%"}
